// reported GI50 for each item listed
System: EKVX
Method Summary: NCI tumour cell line growth inhibition, 48 h
Calls of active or inactive are those of the source. Rule as the data show it: active = GI50 up to about 1.1 µM and inactive = higher.
Readout Name: GI50

| Compound | Result |
| --- | --- |
| CC(=O)Oc1ccc(-c2cc3ccccc3oc2=O)cc1OC(C)=O | 21.8 µM (inactive) |
| CC(C)C/C(CC(=O)CCC(=O)Nc1ccccc1[N+](=O)[O-])=N\NC(=O)c1cc2ccccc2cc1O | 34 µM (inactive) |
| COc1cc(=O)oc(/C=C/C=C/C=C/C(C)=C\C2(C)OC(C)C(C)(O)C2O)c1C (stereo unspecified) | > 100 µM (inactive) |
| Cc1ccc(S(=O)(=O)SC(C)(C)C)cc1 | > 45.8 µM (inactive) |
| Oc1ccc(-c2c3ccccc3c(-c3ccc(OCCBr)cc3)c3ccccc23)cc1 | 32.9 µM (inactive) |
| COC(=O)C1=C(CCCCO[Si](C)(C)C(C)(C)C)NC(=O)N2[C@H](CCOCc3ccccc3)CC[C@@H]12 | 31.5 µM (inactive) |

====

Consider the following molecules and their measured GI50 readings.
System: XF498
Method Summary: NCI tumour cell line growth inhibition, 48 h
Activity calls are given as the source filed them. Rule as the data show it: active = GI50 up to about 1.1 µM and inactive = higher.

| Molecule | GI50 |
| --- | --- |
| COc1cccc(NC(=O)/C(Cc2nc3ccccc3nc2C)=N/NC(=O)C[n+]2ccccc2)c1 | > 100 µM (inactive) |
| O=[N+]([O-])c1ccc2nc(/C(=N/Nc3ccccc3)C(O)c3ccc(Cl)cc3Cl)c(O)nc2c1 (stereo unspecified) | > 100 µM (inactive) |
| COC(=O)C1C=CCON2CCc3c(n(C)c4ccccc34)C12 (stereo unspecified) | 42.1 µM (inactive) |
| [N-]=[N+]=NC1C(Br)C(=O)NC(=O)N1[C@H]1C[C@H](O)[C@@H](CO)O1 (stereo partly specified) | > 100 µM (inactive) |
| CC(=O)OCC1C(=O)OCC1C(=O)N1Cc2cc3ccccc3nc2C1 (stereo unspecified) | 1.82 µM (inactive) |
| O=C(c1ccccc1)c1oc2ccc(Br)cc2c1-c1cnn(-c2ccccc2)c1 | > 100 µM (inactive) |
| CCN(CC)C(=O)CC12CCCCC1=Nc1ccccc12 (stereo unspecified) | > 100 µM (inactive) |
| C[n+]1c2ccccc2c(/C=N\NS(=O)(=O)c2ccc(O)c(C(=O)O)c2)c2ccccc21 | 14.9 µM (inactive) |
| CCCCCCCCCCCCCC(=O)OC(/C=C/C(C)C)C(O)C(O)C(OC)C(=O)NC1CCCCNC1=O (stereo unspecified) | 1.78 µM (inactive) |
| O=C(COC(=O)c1cccc2c(=O)c3ccccc3[nH]c12)Nc1ccccc1 | 32.1 µM (inactive) |
| N#CC12CCC1C1CCCCC12N1CCSCC1 (stereo unspecified) | > 100 µM (inactive) |

====

System: K562
Method Summary: NCI tumour cell line growth inhibition, 48 h
Activity calls are given as the source filed them. No stated cut-off is given here; in the data, active = GI50 up to about 1.1 µM and inactive = higher.
Readout Name: GI50

| Compound | Result |
| --- | --- |
| C[C@@H]1CC[C@H]2[C@H]1[C@H]1[C@@H](CC[C@]2(C)N=C=S)C1(C)C | 16.2 µM (inactive) |
| COc1cc2c(cc1O)CN1CCC23C=C[C@@H](O)CC13 (stereo partly specified) | 51.3 µM (inactive) |
| Cn1c(N/N=C/c2ccccc2)nc(-c2ccc([N+](=O)[O-])cc2)c(C#N)c1=O | 1.61 µM (inactive) |
| C=C1C(C)C2C(Cc3ccccc3)NC(=O)C23C(OC(C)=O)/C=C/C(C)(O)CC(C)C/C=C/C3C1O (stereo unspecified) | 23.3 µM (inactive) |
| OC(CC(O)(C(F)(F)Cl)C(F)(F)Cl)c1ccccc1 (stereo unspecified) | > 10 µM (inactive) |
| CCOC(=O)Nc1ccc2c(c1)c(CCCCCCc1nc3ccccc3c3ccc(NC(=O)OCC)cc13)nc1ccccc12 | 80 µM (inactive) |
| COc1cccc(N(CN2C(=O)CCC2OC)C(C)=O)c1 (stereo unspecified) | > 100 µM (inactive) |
| COC(=O)/N=[N+](\[O-])C(c1ccc(OC)cc1)C1CCCCC1 (stereo unspecified) | 2.67 µM (inactive) |
| O=C(N/N=C\c1ccc(Cl)cc1)Nc1cccc2ccccc12 | 3.23 µM (inactive) |
| Cc1cc2c(c3nocc13)C(=O)c1ccccc1C2=O | > 100 µM (inactive) |
| COC1OC2COC(C)(C)OC2C(OC(C)=O)C1NC(=O)N(CCCl)N=O (stereo unspecified) | 54.8 µM (inactive) |
| CN(C)CC(O)CNC(=O)Nc1ccccc1 (stereo unspecified) | > 100 µM (inactive) |
| O=S(=O)(c1ccccc1)n1cnc(CCc2ccccc2)n1 | > 100 µM (inactive) |
| C/C(=N/NC(=S)N1CCCCC1)c1ccccc1O | 22.8 µM (inactive) |
| CCc1n[nH]c(=O)n1N=C(c1ccccc1)c1ccccc1 | > 100 µM (inactive) |
| O=c1cc2ccccc2nn1-c1ccccc1Cl | 59.6 µM (inactive) |
| COc1cc(N(C)C)c(OC)cc1C=C1C=CC=C1 | 58.5 µM (inactive) |
| COC(=O)C(CC(C)C)NC(=O)C(NC(=O)c1ccc(-c2ccc(Cl)cc2Cl)o1)C(C)C (stereo unspecified) | 16 µM (inactive) |
| Cc1cc2c(cc1C)[n+]([O-])c(C#N)c(Cl)[n+]2[O-] | 10.3 µM (inactive) |
| C[C@]12Cc3cnn(-c4ccc(F)cc4)c3NC1CC[C@@H]1C2CC[C@@]2(C)C1CC[C@@H]2O (stereo partly specified) | 2.94 µM (inactive) |
| CC12CC(c3ccccc3O1)C(C(=O)Nc1ccc(Cl)cc1Cl)C(=O)N2 (stereo unspecified) | 38.3 µM (inactive) |
| CN1CCCCC(C#N)(c2ccccc2)CC1 (stereo unspecified) | > 100 µM (inactive) |
| O=C1CC(NC(=O)C(F)(F)F)c2c(Br)sc(N3CCC(c4ccccc4)CC3)c21 (stereo unspecified) | 5.27 µM (inactive) |
| C/C=C(\CCOS(=O)(=O)c1ccc(C)cc1)[Si](C)(C)C | > 100 µM (inactive) |
| CCC(/C=C/c1ccccc1)=N\N=C(\C=C\c1ccccc1)CC | > 100 µM (inactive) |
| Cc1cc(C)c(-c2no/c(=N\S(=O)(=O)c3ccc(Cl)cc3)o2)c(C)c1 | 49.5 µM (inactive) |
| CN(C)CCCCC1CCN(CC(=O)N2c3ccccc3NC(=O)c3ccccc32)CC1 | > 100 µM (inactive) |
| O=C1C2Cc3ccccc3CN2C(=O)N1CCN1CCOCC1 (stereo unspecified) | > 100 µM (inactive) |
| O=C1CCC23CC(C=CC=C12)n1c(=O)n(-c2ccccc2)c(=O)n13 (stereo unspecified) | 39.8 µM (inactive) |
| COc1nc(C)nc2c1ncn2Cc1ccccc1 | > 100 µM (inactive) |
| N=C(N)NS(=O)(=O)c1ccc(Nc2c3ccccc3nc3c(C(=O)Nc4ccc(S(N)(=O)=O)cc4)cccc23)cc1 | 33.3 µM (inactive) |
| C=CC1(c2ccc(-c3ccccc3)cc2)OCCO1 | 22.9 µM (inactive) |
| C=C(C)[C@@]1(O[Si](C)(C)C)CCCC[C@@H]1CC(Sc1ccccc1)Sc1ccccc1 | 12.7 µM (inactive) |
| CCCN1C(=O)C/C(=C\C(C)=O)Nc2ccccc21 | > 100 µM (inactive) |
| OCC1NC(CO)C(O)C1O (stereo unspecified) | > 100 µM (inactive) |
| N/C(=N\c1ccc(Cl)c(Cl)c1)c1ccccc1N | 18.4 µM (inactive) |
